# TESTED SYSTEM: Electric-eel AChE (Electrophorus electricus, UniProt O42275)
# Construct: purchased Sigma
# Sequence (O42275 24-633): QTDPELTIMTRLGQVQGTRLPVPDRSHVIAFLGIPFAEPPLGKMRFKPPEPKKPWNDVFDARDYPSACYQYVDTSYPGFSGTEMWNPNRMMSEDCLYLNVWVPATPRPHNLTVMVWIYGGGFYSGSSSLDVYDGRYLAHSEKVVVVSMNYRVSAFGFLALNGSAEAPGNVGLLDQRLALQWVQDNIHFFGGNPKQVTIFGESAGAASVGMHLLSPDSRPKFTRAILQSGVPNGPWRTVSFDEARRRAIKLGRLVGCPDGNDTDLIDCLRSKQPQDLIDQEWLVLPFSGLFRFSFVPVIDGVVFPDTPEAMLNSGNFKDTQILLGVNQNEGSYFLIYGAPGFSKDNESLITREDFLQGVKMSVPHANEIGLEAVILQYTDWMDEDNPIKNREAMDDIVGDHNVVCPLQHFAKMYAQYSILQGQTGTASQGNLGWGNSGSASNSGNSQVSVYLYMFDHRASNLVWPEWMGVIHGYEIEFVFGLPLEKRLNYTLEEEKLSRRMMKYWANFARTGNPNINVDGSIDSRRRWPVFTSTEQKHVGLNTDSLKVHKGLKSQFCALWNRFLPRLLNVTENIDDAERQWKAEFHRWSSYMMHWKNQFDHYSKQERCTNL
# ASSAY SUMMARY: biochemical
# SETUP CONDITIONS: table; mean ± SEM, n = 3; read-out: IC50
Provide the recorded pIC50 for the entries that follow.
Numbers only, as −log10 of the molar value.

Example results:
CC1OC(OCC2OC(Oc3c(-c4ccc(O)cc4)oc4cc(O)cc(O)c4c3=O)C(O)C(O)C2O)C(O)C(O)C1O (stereo not drawn) [Compound 8, Kaempferol 3-o-robinobioside] : 4.37
Oc1cc(O)c2c(c1)O[C@H](c1ccc(O)c(O)c1)[C@H](O)C2 [Compound 2, (-)-epicatechin] : 4.50

Next:
Ask | Please look up its pIC50: Oc1cc(O)c2c(c1)OC(c1ccc(O)c(O)c1)C(O)C2 (single isomer, unassigned; (+)) [Compound 1, (+)-catechin]
Reply | 4.47

###

# TESTED SYSTEM: Electric-eel AChE (Electrophorus electricus, UniProt O42275)
# Construct: purchased Sigma
# ASSAY SUMMARY: biochemical
Provide the recorded pIC50 for the entries that follow.
Give bare numbers, as −log10 of the molar value.

Example results:
O=c1c(O[C@@H]2O[C@H](CO)[C@@H](O)[C@H](O)[C@H]2O)c(-c2ccc(O)c(O)c2)oc2cc(O)cc(O)c12 [Compound 5, quercetin-3-O-β-D-gulucopyranoside] : 4.50
CN(CCCCCCN(C)C(=O)Oc1ccc[n+](C)c1)C(=O)Oc1ccc[n+](C)c1 [distigmine bromide, reference compound] : 4.57

Ask | Please look up its pIC50: O=c1c(O[C@@H]2O[C@H](CO)[C@@H](O)[C@H](O)[C@H]2O)c(-c2ccc(O)cc2)oc2cc(O)cc(O)c12 [Compound 3, kaempferol 3-o-β-D-glucoside]
Reply | 4.54
